Reference source for all entries: ChEMBL document CHEMBL6153064

Please respond with reported selectivity ratio for every item in the list.
Test: Selectivity index, ratio of CC50 for cytotoxicity against human MT4 cells to EC50 for antiviral activity against wild type HIV-1 IIIB infected in human MT4 cells
Format: toxicity, cell-based
Conditions: read-out: Ratio CC50/EC50
Enter the number alone.

Q: Kindly indicate its recorded selectivity ratio. Item: COc1cc(-c2ccc(C#N)cc2)ccc1/C(=N\N)c1ccnc(Nc2ccc(C#N)cc2)n1
A: 11000

Q: Kindly indicate its recorded selectivity ratio. Item: N#Cc1ccc(Nc2nccc(C(NC3CC3)c3ccc(-c4ccc(C#N)cc4)cc3C(F)(F)F)n2)cc1 (centres undefined)
A: 250

Q: Kindly indicate its recorded selectivity ratio. Item: N#Cc1ccc(Nc2nccc(C(NCCO)c3ccc(-c4ccc(C#N)cc4)cc3Cl)n2)cc1 (centres undefined)
A: 238

Q: Kindly indicate its recorded selectivity ratio. Item: CC(C)NC(c1ccnc(Nc2ccc(C#N)cc2)n1)c1ccc(-c2ccc(C#N)cc2)cc1C(F)(F)F (centres undefined)
A: 25

Q: Kindly indicate its recorded selectivity ratio. Item: CCNC(c1ccnc(Nc2ccc(C#N)cc2)n1)c1ccc(-c2ccc(C#N)cc2)cc1F (centres undefined)
A: 87

Q: Kindly indicate its recorded selectivity ratio. Item: N#Cc1ccc(Nc2nccc(C(NC3CC3)c3ccc(-c4ccc(C#N)cc4)cc3OC(F)(F)F)n2)cc1 (centres undefined)
A: 125
